PROTOCOL SUMMARY: in vitro
Set-up: species or system HB2, HEK293
CONDITION DESCRIPTION: human, ccd841 cells
Field: label. Allowed values: rule met (viability at 48 h, 10 µM < 70%) or rule not met (viability at 48 h, 10 µM >= 70%).

# MOLECULE, ANSWER LABEL
rows = [
    ("O=C(CCl)Nc1nnc(C2CC2)o1 [PCM-0102187]", "rule not met"),
    ("O=C(CCl)NC(=O)Nc1ccccc1F [PCM-0102376]", "rule not met"),
    ("CC1CCN(c2ccc(NC(=O)CCl)cc2)CC1.Cl [PCM-0102235]", "rule met"),
]

Does the reported viability at 48 h, 10 µM of C=CC(=O)N1CCCCC1C(=O)O (centres unmarked) [PCM-0102507] stay below 70%?
rule not met

Does the reported viability at 48 h, 10 µM of C=CC(=O)Nc1ccc(C)c(F)c1 [PCM-0102878] stay below 70%?
rule not met

Does the reported viability at 48 h, 10 µM of Cc1ccc(Cn2ccsc2=NC(=O)CCl)cc1 [PCM-0102708] stay below 70%?
rule met
